study target: HSP90a protein (Homo sapiens, UniProt P07900)
Construct: purchased BPS Bioscience 50298
procedure text: HSP90α-binding fluorescent polarization (FP) assay, BODIPY-labeled RNK04010 probe
applied conditions: FP competition with RNK04010 (BODIPY-labeled), 5 nM, 300 min at 25° C.
pIC50: −log10 of the molar value.

[
  {
    "smiles str": "C=CC(=O)N1CCN(c2nc(NCCC(=O)NCc3ccc(-n4c(O)nnc4-c4cc(CCC)c(O)cc4O)cc3)nc3c2CCN(c2cccc4cccc(Cl)c24)C3)C[C@H]1CC#N",
    "pIC50": "< 6.00"
  },
  {
    "smiles str": "C=CC(=O)N1CCN(c2nc(OC[C@@H]3CCN(C(=O)C4CCN(Cc5ccc(-n6c(C(N)=O)nnc6-c6cc(C(C)C)c(O)cc6O)cc5)CC4)C3)nc3c2CCN(c2cccc4cccc(Cl)c24)C3)C[C@@H]1CC#N",
    "pIC50": "6.00 to 7.00"
  },
  {
    "smiles str": "C=CC(=O)N1CCN(c2nc(NCCC(=O)NCCc3ccc(-n4c(O)nnc4-c4cc(C(C)C)c(O)cc4O)cc3)nc3c2CCN(c2cc(O)cc4ccccc24)C3)CC1",
    "pIC50": "6.00 to 7.00"
  },
  {
    "smiles str": "C=CC(=O)N1CCN(c2nc(OC[C@@H]3CCN(C(=O)c4cc(C(C)C)c(O)cc4OC)C3)nc3c2CCN(c2cccc4cccc(Cl)c24)C3)C[C@@H]1CC#N",
    "pIC50": "< 6.00"
  },
  {
    "smiles str": "C=CC(=O)N1CCN(c2nc(OC[C@@H]3C[C@@H](OCC(=O)N4CCC(CN5CCN(Cc6ccc(-n7c(O)nnc7-c7cc(C(C)C)c(O)cc7O)cc6)CC5)CC4)CN3C)nc3c2CCN(c2cccc4cccc(Cl)c24)C3)C[C@@H]1CC#N",
    "pIC50": "> 7.00"
  }
]

* * *

study target: HSP90a protein (Homo sapiens)
Construct: purchased BPS Bioscience 50298
procedure text: HSP90α-binding fluorescent polarization (FP) assay, BODIPY-labeled RNK04010 probe
applied conditions: FP competition with RNK04010 (BODIPY-labeled), 5 nM, 300 min at 25° C.
pIC50: −log10 of the molar value.

[
  {
    "smiles str": "C=CC(=O)N1CCN(c2nc(OC[C@@H]3C[C@H](NC(=O)C4CCN(Cc5ccc(-n6c(O)nnc6-c6cc(C(C)C)c(O)cc6O)cc5)CC4)CN3C)nc3c2CCN(c2cccc4cccc(Cl)c24)C3)C[C@@H]1CC#N",
    "study target": "HSP90a protein (Homo sapiens)",
    "pIC50": "> 7.00"
  },
  {
    "smiles str": "C=CC(=O)N1CCN(c2nc(OC[C@H]3CC[C@@H](C(=O)N4CCN(C(=O)C5CCN(Cc6ccc(-n7c(O)nnc7-c7cc(C(C)C)c(O)cc7O)cc6)CC5)CC4)N3C)nc3c2CCN(c2cccc4cccc(Cl)c24)C3)C[C@@H]1CC#N",
    "study target": "HSP90a protein (Homo sapiens)",
    "pIC50": "> 7.00"
  },
  {
    "smiles str": "C=C(F)C(=O)N1CCN(c2nc(NCCC(=O)NCc3ccc(CN4CCC(Cc5ccc(-n6c(C(=O)NCC(F)(F)F)nnc6-c6cc(C(C)C)c(O)cc6O)cc5)CC4)cc3)nc3c2CCN(c2cc(O)cc4ccccc24)C3)CC1",
    "study target": "HSP90a protein (Homo sapiens)",
    "pIC50": "6.00 to 7.00"
  },
  {
    "smiles str": "C=CC(=O)N1CCN(c2nc(NCCC(=O)N[C@H](C)c3ccc(CN4CCC(Cc5ccc(-n6c(O)nnc6-c6cc(C(C)C)c(O)cc6O)cc5)CC4)cc3)nc3c2CCN(c2cc(O)cc4ccccc24)C3)CC1",
    "study target": "HSP90a protein (Homo sapiens)",
    "pIC50": "6.00 to 7.00"
  },
  {
    "smiles str": "C=CC(=O)N1CCN(c2nc(OC[C@@H]3C[C@H](N4CCC5(CCN(Cc6ccc(-n7c(O)nnc7-c7cc(C(C)C)c(O)cc7O)cc6)CC5)CC4)CN3C)nc3c2CCN(c2cccc4cccc(Cl)c24)C3)C[C@@H]1CC#N",
    "study target": "HSP90a protein (Homo sapiens)",
    "pIC50": "> 7.00"
  },
  {
    "smiles str": "C=CC(=O)N1CCN(c2nc(OC[C@@H]3C[C@H](N4CCC(C(=O)NCCc5ccc(CN6CCC(Cc7ccc(-n8c(C(=O)NCC(F)(F)F)nnc8-c8cc(C(C)C)c(O)cc8O)cc7)CC6)cc5)CC4)CN3C)nc3c2CCN(c2cccc4cccc(Cl)c24)C3)C[C@@H]1CC#N",
    "study target": "HSP90a protein (Homo sapiens)",
    "pIC50": "> 7.00"
  },
  {
    "smiles str": "CC(=O)N1CCN(c2nc(NCCC(=O)NCc3ccc(-n4c(O)nnc4-c4cc(C)c(O)cc4O)cc3)nc3c2CCN(c2cc(O)cc4ccccc24)C3)CC1",
    "study target": "HSP90a protein (Homo sapiens)",
    "pIC50": "< 6.00"
  },
  {
    "smiles str": "C=CC(=O)N1CCN(c2nc(NCCC(=O)N3CCN(c4ccc(-n5c(O)nnc5-c5cc(C(C)C)c(O)cc5O)cc4)CC3)nc3c2CCN(c2cc(O)cc4ccccc24)C3)CC1",
    "study target": "HSP90a protein (Homo sapiens)",
    "pIC50": "6.00 to 7.00"
  },
  {
    "smiles str": "C=CC(=O)N1CCN(c2nc(OC[C@@H]3C[C@@H](NCc4ccc(-n5c(O)nnc5-c5cc(C(C)C)c(O)cc5O)cc4)CN3C)nc3c2CCN(c2cccc4cccc(Cl)c24)C3)C[C@@H]1CC#N",
    "study target": "HSP90a protein (Homo sapiens)",
    "pIC50": "> 7.00"
  }
]

* * *

study target: KRAS(G12C) (Homo sapiens, UniProt P01116, G12C)
Sequence (P01116 1-188 isoform P01116-2 G12C): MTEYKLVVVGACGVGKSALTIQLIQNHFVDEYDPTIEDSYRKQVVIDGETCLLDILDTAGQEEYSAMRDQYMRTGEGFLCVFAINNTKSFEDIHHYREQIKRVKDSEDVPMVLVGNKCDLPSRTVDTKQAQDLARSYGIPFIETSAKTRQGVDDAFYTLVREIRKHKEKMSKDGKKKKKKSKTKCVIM
procedure text: KRAS(G12C)/SOS1 homogeneous time-resolved fluorescence (HTRF) assay
applied conditions: absence of GTP, 4° C. for 3 hr, read-out: KRAS (G12C) binding
metric: IC50

[
  {
    "molecule": "C=CC(=O)N1CCN(c2nc(OC[C@@H]3C[C@H](N4CCC(C(=O)N5CCN(Cc6ccc(-n7c(O)nnc7-c7cc(CC)c(O)cc7O)cc6)CC5)CC4)CN3C)nc3c2CCN(c2cccc4cccc(Cl)c24)C3)C[C@@H]1CC#N",
    "study target": "KRAS(G12C) (Homo sapiens, UniProt P01116, G12C)",
    "result": "< 0.1 µM"
  },
  {
    "molecule": "CCC(=O)N1CCN(c2nc(OCCN3CCN(C(=O)C4CCN(Cc5ccc(-n6c(C(=O)NCC(F)(F)F)nnc6-c6cc(C(C)C)c(O)cc6O)cc5)CC4)CC3)nc3c2CCN(c2cccc4cccc(Cl)c24)C3)C[C@@H]1CC#N",
    "study target": "KRAS(G12C) (Homo sapiens, UniProt P01116, G12C)",
    "result": "> 1 µM"
  },
  {
    "molecule": "C=CC(=O)N1CCN(c2nc(OCCN3CCC(C(=O)N4CCN(Cc5ccc(-n6c(C(=O)NCC(F)(F)F)nnc6-c6cc(C)c(O)cc6O)cc5)CC4)CC3)nc3c2CCN(c2cccc4cccc(Cl)c24)C3)C[C@@H]1CC#N [Compound 250]",
    "study target": "KRAS(G12C) (Homo sapiens, UniProt P01116, G12C)",
    "result": "< 0.1 µM"
  },
  {
    "molecule": "C=CC(=O)N1CCN(c2nc(OC[C@@H]3C[C@H](N4CCN(C(=O)C5CCN(Cc6ccc(-n7c(C(=O)NCC(F)(F)F)nnc7-c7cc(C(C)C)c(O)cc7O)cc6)CC5)CC4)CN3C)nc3c2CCN(c2cccc4cccc(Cl)c24)C3)C[C@@H]1CC#N",
    "study target": "KRAS(G12C) (Homo sapiens, UniProt P01116, G12C)",
    "result": "< 0.1 µM"
  }
]

* * *

Tested on: NCI-H358 human non-small cell lung cancer
procedure text: NCI-H358 CCK-8 proliferation assay
Format: cell-based
applied conditions: NCI-H358 cells, 72 hr
EC50 values by entry

[
  {
    "smiles str": "C=C(F)C(=O)N1CCN(c2nc(OC[C@@H]3CCCN3C(=O)COc3ccc(Nc4cc(-n5nc(C(F)(F)F)c6c5CC(C)(C)CC6=O)ccc4C(N)=O)cc3)nc3c2CCN(c2cccc4cccc(Cl)c24)C3)C[C@@H]1CC#N",
    "EC50": "> 1000 nM"
  },
  {
    "smiles str": "C=CC(=O)N1CCN(c2nc(NCCC(=O)N3CCN(Cc4ccc5c(c4)CN(C(=O)c4cc(CC)c(O)cc4O)C5)CC3)nc3c2CCN(c2cc(O)cc4ccccc24)C3)CC1",
    "EC50": "> 1000 nM"
  },
  {
    "smiles str": "CCC(=O)N1CCN(c2nc(NCCC(=O)N3CCC(CN4CCN(Cc5ccc(-n6c(C(=O)NC(C)C)nnc6-c6cc(CC)c(O)cc6O)cc5)CC4)CC3)nc3c2CCN(c2cc(O)cc4ccccc24)C3)CC1",
    "EC50": "100 to 1000 nM"
  },
  {
    "smiles str": "CCC(=O)N1CCN(c2nc(NCCC(=O)N3CCC(CN4CCN(Cc5ccc(-n6c(C(=O)NC(CC)CC)nnc6-c6cc(CC)c(O)cc6O)cc5)CC4)CC3)nc3c2CCN(c2cc(O)cc4ccccc24)C3)CC1",
    "EC50": "100 to 1000 nM"
  },
  {
    "smiles str": "CCC(=O)N1CCN(c2nc(NCCC(=O)N3CCC(CN4CCN(Cc5ccc(-n6c(C(N)=O)nnc6-c6cc(CC)c(O)cc6O)cc5)CC4)CC3)nc3c2CCN(c2cc(O)cc4ccccc24)C3)CC1",
    "EC50": "100 to 1000 nM"
  },
  {
    "smiles str": "CCCc1cc(-c2nnc(O)n2-c2ccc(CN3CCN(CC4CCN(C(=O)CCNc5nc6c(c(N7CCN(C(C)=O)CC7)n5)CCN(c5cc(O)cc7ccccc57)C6)CC4)CC3)cc2)c(O)cc1O",
    "EC50": "100 to 1000 nM"
  },
  {
    "smiles str": "C=CC(=O)N1CCN(c2nc(NCCC(=O)N3CCC(Cc4ccc(-n5c(O)nnc5-c5cc(C(C)C)c(O)cc5O)cc4)CC3)nc3c2CCN(c2cc(O)cc4ccccc24)C3)CC1",
    "EC50": "> 1000 nM"
  },
  {
    "smiles str": "C=CC(=O)N1CCN(c2nc(NCCC(=O)N3CCN(Cc4ccc5c(c4)CN(C(=O)c4cc(C(C)C)c(O)cc4O)C5)CC3)nc3c2CCN(c2cc(O)cc4ccccc24)C3)CC1",
    "EC50": "> 1000 nM"
  },
  {
    "smiles str": "C=CC(=O)N1CCN(c2nc(NCCC(=O)NCc3ccc(-n4c(O)nnc4-c4cc(C(C)C)c(O)cc4O)cc3C(F)(F)F)nc3c2CCN(c2cccc4ccccc24)C3)C[C@H]1CC#N",
    "EC50": "> 1000 nM"
  }
]
